# System: T1, oxi-RPN13^Pru following incubation with 3-fold molar excess TXNL1^Trx (UniProt Q16186 1-150, oxidized with 0.05 % H2O2, then treated with TXNL1 Trx)
# T1 construct: RPN13 Pru domain, residues 1-150; source: E. coli BL21(DE3) pLysS, purified; not shown: His6, N-terminal, cleaved
# T1 sequence (Q16186 1-150): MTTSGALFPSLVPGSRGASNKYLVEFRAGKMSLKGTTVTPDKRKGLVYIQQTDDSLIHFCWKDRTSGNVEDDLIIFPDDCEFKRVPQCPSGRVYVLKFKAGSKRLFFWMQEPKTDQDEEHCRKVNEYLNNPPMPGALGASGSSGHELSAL
# Assay remarks: ITC; RPN2 (940–953) in the syringe (205.7 or 160 μM), RPN13 Pru in the cell (20.57 or 16 μM); 25 °C, non-reducing buffer: 20 mM sodium phosphate, 50 mM NaCl, pH 6.0; one-site fit
# Applied conditions: both partners purified
Endpoint label: Kd (nM)
I only need the number, in nM, no unit after it.

binder QEPEPPEPFEYIDD (peptide, UniProt Q99460 940-953, looked up, The construct has a PreScission site after GST, but the methods tell only of elution as the GST fusion; ITC and NMR speak of the RPN2 peptide; also called RPN2 (940–953); RPN2^940–953) [RPN2 peptide (940–953)] , Kd observed: 18.9
